molecular target: Glucagon receptor (Rattus norvegicus); assay: Relative binding by measuring competition for glucagon receptor between [125]glucagon and the compound.
Peptide text beside a SMILES is read from it.
experimental endpoint: Relative binding (%)

Qu. I would be grateful if you could share the reported Relative binding for CC(=O)N[C@@H](CS)C(=O)N[C@@H](Cc1ccc(O)cc1)C(=O)N[C@@H](CO)C(=O)N[C@@H](CCCCN)C(=O)N[C@@H](Cc1ccc(O)cc1)C(=O)N[C@@H](CS)C(N)=O (Ac-CYSKYC-NH2) .
Ans. 0

Qu. Also CC(=O)N[C@@H](Cc1ccccc1)C(=O)N[C@@H](CS)C(=O)N[C@@H](CO)C(=O)N[C@@H](CC(=O)O)C(=O)N[C@@H](Cc1ccc(O)cc1)C(=O)N[C@@H](CO)C(=O)N[C@@H](CS)C(=O)N[C@@H](Cc1ccc(O)cc1)C(=O)N[C@@H](CC(C)C)C(N)=O (Ac-FCSDYSCYL-NH2) ?
Ans. 24

Qu. Also `CC(C)C[C@H](NC(=O)[C@H](Cc1ccc(O)cc1)NC(=O)[C@H](CCCCN)NC(=O)[C@H](CO)NC(=O)[C@H](Cc1ccc(O)cc1)NC(=O)[C@H](CC(=O)O)NC(=O)[C@H](CO)NC(=O)[C@@H](NC(=O)[C@H](Cc1ccccc1)NC(=O)[C@@H](NC(=O)CNC(=O)[C@H](CCC(N)=O)NC(=O)[C@H](CO)NC(=O)[C@@H](N)Cc1c[nH]cn1)[C@@H](C)O)[C@@H](C)O)C(=O)N[C@@H](CC(N)=O)C(=O)N[C@@H](CO)C(=O)N[C@@H](CCCN=C(N)N)C(=O)O` ?
Ans. 0.0001

Qu. Also CC(=O)N[C@@H](Cc1ccccc1)C(=O)N[C@@H](CS)C(=O)N[C@@H](CO)C(=O)N[C@@H](CC(=O)O)C(=O)N[C@@H](Cc1ccc(O)cc1)C(=O)N[C@@H](CO)C(=O)N[C@@H](CS)C(=O)N[C@@H](Cc1ccc(O)cc1)C(=O)N[C@@H](CC(C)C)C(=O)N[C@@H](CC(=O)O)C(N)=O (Ac-FCSDYSCYLD-NH2) ?
Ans. 56

Qu. Also `CC(=O)N[C@@H]1CSSC[C@H](C(N)=O)NC(=O)[C@@H](Cc2ccc(O)cc2)NC(=O)[C@H](CCCCN)NC(=O)[C@@H](CO)NC(=O)[C@H](Cc2ccc(O)cc2)NC1=O` ?
Ans. 0

Qu. Also `CSCC[C@H](NC(=O)[C@H](CC(C)C)NC(=O)[C@H](Cc1c[nH]c2ccccc12)NC(=O)[C@H](CCC(N)=O)NC(=O)[C@@H](NC(=O)[C@H](Cc1ccccc1)NC(=O)[C@H](CC(=O)O)NC(=O)[C@H](CCC(N)=O)NC(=O)[C@H](C)NC(=O)[C@H](CCCN=C(N)N)NC(=O)[C@H](CCCN=C(N)N)NC(C)=O)C(C)C)C(=O)N[C@@H](CC(N)=O)C(=O)N[C@H](C(N)=O)[C@@H](C)O` ?
Ans. 0.065
